# System: A549
# assay overview: Antiproliferative activity against human A549 cells after 48 hrs by MTT assay
# Type: functional
# test parameters: A549, 48 h
measured attribute: GI50 (nM)

COc1ccc(/C=C2\Cc3c(cc(OC)c(OC)c3OC)C2=O)cc1 | 273
COc1ccc(/C=C2\Cc3c(cc(OC)c(OC)c3OC)C2=O)cc1Br | 410
COc1ccc(/C=C2\Cc3c(cc(OC)c(OC)c3OC)C2=O)cc1N | 212

a. COc1ccc(/C=C2\Cc3c(cc(OC)c(OC)c3OC)C2=O)cc1F
b. COc1ccc(/C=C2\CCc3c(cc(OC)c(OC)c3OC)C2=O)cc1
c. COc1ccc(/C=C2\Cc3c(cc(OC)c(OC)c3OC)C2=O)cc1[N+](=O)[O-]
Task: Put the items in sequence by GI50, from largest down. Please reply with the labels ordered as requested. Many thanks.
Result: b, c, a
(b: 18900 nM, c: 770 nM, a: 298 nM)
